target: Histone-lysine N-methyltransferase EHMT2 (Homo sapiens) (UniProt Q96KQ7); test: qHTS Assay for Inhibitors of Histone Lysine Methyltransferase G9a; settings: G9a H3K9 monomethylation, AlphaScreen, 2 h; series mostly up to 59 µM; note: nearly all actives have a fitted effect of over 75% in size; note: potency is the fitted concentration of half-maximal effect
Sequence (Q96KQ7 913-1193 limits assumed): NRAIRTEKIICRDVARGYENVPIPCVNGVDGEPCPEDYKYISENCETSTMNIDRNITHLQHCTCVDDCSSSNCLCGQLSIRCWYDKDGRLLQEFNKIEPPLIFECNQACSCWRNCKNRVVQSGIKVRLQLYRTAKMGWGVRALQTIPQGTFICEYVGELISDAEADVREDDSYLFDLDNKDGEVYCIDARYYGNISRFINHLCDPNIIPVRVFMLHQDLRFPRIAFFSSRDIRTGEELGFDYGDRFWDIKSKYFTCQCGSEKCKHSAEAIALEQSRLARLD
Among all 350,000 compounds or so, about 31,000 (8.9%) were called active. About 15% were inconclusive and are not listed. The sample as a whole holds a higher share of actives than the screen did.
measured-metric: Potency

Check out these entries, answers already filled in.
[
  {
    "molecule": "Cc1nnc(NC(=O)Nc2ccc(Cl)c(Cl)c2)s1",
    "target-or-test-system": "Histone-lysine N-methyltransferase EHMT2 (Homo sapiens) (UniProt Q96KQ7)",
    "Potency": "inactive"
  },
  {
    "molecule": "COc1ccc(CNC(=O)C(=O)N2CCC3(CC2)OCCN3S(=O)(=O)c2ccc(C)cc2)cc1",
    "target-or-test-system": "Histone-lysine N-methyltransferase EHMT2 (Homo sapiens) (UniProt Q96KQ7)",
    "Potency": "inactive"
  },
  {
    "molecule": "Clc1c(OCCCn2ccnc2)ccc2ccccc12",
    "target-or-test-system": "Histone-lysine N-methyltransferase EHMT2 (Homo sapiens) (UniProt Q96KQ7)",
    "Potency": "79.4 µM (active)"
  },
  {
    "molecule": "O=C(CSc1ncccn1)NCCc1ccccc1",
    "target-or-test-system": "Histone-lysine N-methyltransferase EHMT2 (Homo sapiens) (UniProt Q96KQ7)",
    "Potency": "inactive"
  },
  {
    "molecule": "COc1cc(C2/C(=C(\\O)c3ccc4c(c3)CC(C)O4)C(=O)C(=O)N2c2nnc(C)s2)cc(OC)c1OC (centres undefined)",
    "target-or-test-system": "Histone-lysine N-methyltransferase EHMT2 (Homo sapiens) (UniProt Q96KQ7)",
    "Potency": "44.7 µM (active)"
  }
]

For each listed entry, give its Potency.
1. Cc1ccc(CN2COc3cc(C)c4c(oc(=O)c5ccccc54)c3C2)cc1
2. COc1ccc(C(=O)C2CCCN(S(=O)(=O)c3cccc(C)c3)C2)c(C)c1 (centres undefined)
3. O=S(=O)(NC1CC1)c1ccc(Cl)cc1
4. COc1ccc(/C=C/C(=O)c2ccc(OC)cc2O)cc1

Response:
12.6 µM (active)
inactive
inactive
inactive

For each listed entry, give its Potency.
1. Cc1ccc(OCC(O)CN2CCN(CC(O)COc3ccc(C)cc3Cl)CC2)c(Cl)c1 (centres undefined)
2. O=C(N/N=C/c1cc(Cl)cc([N+](=O)[O-])c1O)C(O)(c1ccccc1)c1ccccc1
3. CCOC(=O)c1cc(-c2ccccc2)n(CCC(=O)Nc2ccccc2CC)c1C
4. Cc1cccc(OCc2ccc(C(=O)Nc3ccc(F)cc3)cc2)c1

Response:
inactive
28.2 µM (active)
inactive
inactive

For each listed entry, give its Potency.
1. Cc1cccc(NC(=O)c2nc(S(=O)(=O)Cc3ccccc3)ncc2Cl)c1
2. CC(C)(C)C(=O)c1cnc(Nc2ccccc2)s1
3. CCOC(=O)c1ccc(NC(=O)c2nc(SCc3ccc(F)cc3)ncc2Cl)cc1
4. COc1ccc(/C=C/C(=O)c2cc(Br)ccc(=O)c2O)cc1
5. Cc1cc(OCC(=O)NCC2(N(C)C)CCCCC2)cc(C)c1Cl
6. Cc1c(CNC(C)c2ccccc2)c(C(=O)O)c(C)n1Cc1c(F)cccc1Cl (centres undefined)

Response:
1. 39.8 µM (active)
2. inactive
3. inactive
4. 10 µM (active)
5. inactive
6. inactive

---

target: Histone-lysine N-methyltransferase EHMT2 (Homo sapiens) (UniProt Q96KQ7); assay: qHTS Assay for Inhibitors of Histone Lysine Methyltransferase G9a; details: G9a H3K9 monomethylation, AlphaScreen, 2 h; series mostly up to 59 µM; note: nearly all actives have a fitted effect of over 75% in size
Out of some 350,000 compounds screened, about 31,000 (8.9%) were called active. About 15% were inconclusive and are not listed. The call rests on the fitted dose curve; in most records, active means well fitted inhibition curve with a large enough effect; inconclusive means small, poorly fitted or top-dose-only effect; inactive means no such curve, though single readings can be large or run the other way. The sample holds actives, similar compounds and a random draw of the others, so the mix is not that of the screen.
Answer with one of the outcomes given here: Y (active), N (inactive)

Example results:
[
  {
    "molecule": "Cc1ccc(CNC(=O)C2(C(F)(F)F)C/C(=C\\Cc3ccccc3)CCCO2)o1 (stereo not drawn)",
    "class": "Y"
  },
  {
    "molecule": "O=C(CNS(=O)(=O)c1cccs1)N1CCN(c2ccccc2Cl)CC1",
    "class": "N"
  }
]

Here is another molecule to look at.
Request: What was the test verdict on COc1ccc(Br)cc1/C=N/n1c(C)nnc1C ?
Response: N

---

biological target: Histone-lysine N-methyltransferase EHMT2 (Homo sapiens); experiment: qHTS Assay for Inhibitors of Histone Lysine Methyltransferase G9a; conditions: G9a H3K9 monomethylation, AlphaScreen, 2 h; series mostly up to 59 µM; note: nearly all actives have a fitted effect of over 75% in size
The whole screen tested about 350,000 compounds, of which about 31,000 (8.9%) were called active. Roughly 15% stayed inconclusive and do not appear here. The call rests on the fitted dose curve; in most records, active means well fitted inhibition curve with a large enough effect; inconclusive means small, poorly fitted or top-dose-only effect; inactive means no such curve, though single readings can be large or run the other way. This excerpt belongs to a sample that is enriched for actives.
Answer with one of the outcomes given here: active, inactive

Example results:
[
  {
    "molecule": "O=c1[nH]nc(CSCc2ccccc2Cl)[nH]1",
    "class": "inactive"
  },
  {
    "molecule": "Clc1ccc(N/N=C/c2cccs2)nn1",
    "class": "active"
  },
  {
    "molecule": "CC(C)(C)OC(=O)N1CCC(c2c(C(=O)Nc3ccc4c(c3)OCO4)cnn2-c2ccccc2)CC1",
    "class": "inactive"
  },
  {
    "molecule": "CC1CCC(NC(=O)c2ccc(N3CCCC3=O)cc2)CC1 (configuration not stated)",
    "class": "inactive"
  },
  {
    "molecule": "CCOc1ccc(C(=O)NCCCN2CCCC2=O)cc1",
    "class": "inactive"
  },
  {
    "molecule": "COc1ccc(/C=C(\\C#N)c2c[nH]c3ccccc23)cc1",
    "class": "active"
  },
  {
    "molecule": "O=C(NCCS(=O)(=O)NCc1ccc(Cl)cc1)c1ccccc1",
    "class": "inactive"
  },
  {
    "molecule": "Cc1csc2nc(O)c(C(=O)NCCN3CCOCC3)c(=O)n12",
    "class": "inactive"
  }
]

Request: What was the test verdict on Cc1ccc(Cc2nnc(SCC(=O)Nc3ccccc3C)[nH]c2=O)cc1 ?
Response: inactive

Request: What was the test verdict on O=C(COC(=O)c1cc2c(s1)CCCC2)NCc1ccccc1Cl ?
Response: inactive

Request: What was the test verdict on O=C(Nc1ccc(F)cc1)c1cc2c(s1)CCCC2 ?
Response: inactive

---

target: Histone-lysine N-methyltransferase EHMT2 (Homo sapiens); assay: qHTS Assay for Inhibitors of Histone Lysine Methyltransferase G9a; conditions: G9a H3K9 monomethylation, AlphaScreen, 2 h; series mostly up to 59 µM; note: nearly all actives have a fitted effect of over 75% in size; for activity, negative = inhibition: % is set by controls: 0 for no effect and ±100 for the full control effect
About 31,000 (8.9%) of roughly 350,000 compounds were called active. About 15% were inconclusive and are not listed. The full list was thinned out, with actives kept by preference.
So I've got a bunch of compounds here, and I need their activity, negative = inhibition values.

Check out these entries, answers already filled in.
[
  {
    "compound": "CN1C/C(=C/c2cccs2)C(=O)/C(=C\\c2cccs2)C1",
    "measured-result": "1.72% [at 12.7 µM] (inactive)"
  },
  {
    "compound": "COc1cc(C)cc(CN2CCC(Cc3ccccc3)CC2)c1O",
    "measured-result": "-9.7% [at 2.33 µM] (inactive)"
  },
  {
    "compound": "O=S(=O)(Nc1ccc(-c2ccc(N3CCOCC3)nn2)cc1)c1cc(Cl)ccc1Cl",
    "measured-result": "-28.8% [at 2.33 µM] (inactive)"
  },
  {
    "compound": "O=C1c2ccccc2NC(c2ccc(-c3cccc(Cl)c3)o2)N1O (stereo not given)",
    "measured-result": "25.2% [at 12.7 µM] (inactive)"
  }
]

Now take the following compound into account.
Request: Tell us which activity, negative = inhibition value is on record for CCOC(=O)N1CCN(Cc2nc(N)nc(Nc3ccc(C)cc3)n2)CC1
Response: -23.8% [at 2.33 µM] (inactive)

---

target: Histone-lysine N-methyltransferase EHMT2 (Homo sapiens) (UniProt Q96KQ7); test: qHTS Assay for Inhibitors of Histone Lysine Methyltransferase G9a; conditions: G9a H3K9 monomethylation, AlphaScreen, 2 h; series mostly up to 59 µM; note: nearly all actives have a fitted effect of over 75% in size
About 31,000 (8.9%) of roughly 350,000 compounds were called active. About 15% were inconclusive and are not listed. Calls follow the shape of the dose curve; as a rule, active = well fitted inhibition curve with a large enough effect; inconclusive = small, poorly fitted or top-dose-only effect; inactive = no such curve, though single readings can be large or run the other way. Only a selection was taken, and actives are over-represented in it overall.
Answer with one of the outcomes given here: yes for active, no for inactive

[
  {
    "compound": "COc1ccc(C(=O)Oc2cc(/C=N/NS(=O)(=O)c3ccc(C)cc3)ccc2OC)cc1",
    "class": "no"
  }
]

Request: What was the test verdict on CO/N=C/c1ccc(N2CCN(C(=O)c3cccc(Cl)c3)CC2)c([N+](=O)[O-])c1 ?
Response: yes

Request: What was the test verdict on Cc1cccc(N2C(=O)c3ccc(C(=O)Nc4cccc(C(=O)O)c4)cc3C2=O)c1 ?
Response: no

Request: What was the test verdict on CCOc1ccc(C(O)Cc2nc3ccccc3n2C)cc1 (centres undefined) ?
Response: no
